- EXPERIMENTAL DETAILS: In vitro glutathione peroxidase activity at 2*10e-7M using hydrogen peroxide, activity given in percentage of ebselen''s activity
- Format: functional
Assign met whenever GSH-Px activity does not fall below 100; assign not met whenever it does.

Would you please look over these solved cases?
molecule=Cn1c(=O)[se]c2cc(C(=O)c3cccnc3)ccc21 classification="not met"
molecule=CNc1ccc(C(=O)c2ccccc2)cc1[Se][Se]c1cc(C(=O)c2ccccc2)ccc1NC classification="not met"
molecule="O=c1[nH]c2ccc(C(O)c3ccccc3)cc2[se]1 (stereo not given)" classification="not met"
molecule=CN(C)C(=O)Nc1ccccc1[Se][Se]c1ccccc1NC(=O)N(C)C classification=met
molecule=CC(=O)c1ccc(N)c([Se][Se]c2cc(C(C)=O)ccc2N)c1 classification=met
molecule=CN(C)C(=O)Nc1ccc(C(=O)c2ccccc2)cc1[Se][Se]c1cc(C(=O)c2ccccc2)ccc1NC(=O)N(C)C classification=met

Prompt line: API: above_or_equal(metric=GSH-Px activity, cutoff=100) for item CCCC(=O)c1ccc2[nH]c(=O)[se]c2c1
Response line: not met

Prompt line: For Cn1c(=O)[se]c2cc(C(=O)c3ccccc3)ccc21 then?
Response line: not met

Prompt line: For Nc1ccc(Cc2ccccc2)cc1[Se][Se]c1cc(Cc2ccccc2)ccc1N then?
Response line: met
